Molecular target: Ribosomal protein S6 kinase alpha-3 (Homo sapiens)
Conditions: at 1 µM
Description: GSK_PKIS: RSK2 mean inhibition at 1 uM [Nanosyn]
Class field: derived from inhibition; ranges lo: < 2%; mid: ≥ 2% and < 3%; hi: ≥ 3%

chemical_structure=NS(=O)(=O)c1cccc(-c2cc3ccncc3cc2OCc2ccccc2)c1 assigned_class=mid
chemical_structure=Cc1ccc(Nc2ccnc(Nc3cccc(C(N)=O)c3)n2)cc1O assigned_class=mid
chemical_structure=COc1cc2ncn(-c3cc(OCc4ccccc4S(C)(=O)=O)c(C#N)s3)c2cc1OC assigned_class=hi
chemical_structure=CC(C)c1ccc(Nc2nccc(-c3cnn4ncccc34)n2)cc1 assigned_class=mid
chemical_structure=Cc1nc(-c2ccccc2)n2nc(NCCCN3CCOCC3)ncc12 assigned_class=hi
chemical_structure=NS(=O)(=O)c1ccc(Nc2cc(-c3cccc(O)c3)n[nH]2)cc1 assigned_class=hi
chemical_structure=CS(=O)(=O)CCNCc1nc(-c2ccc3ncnc(Nc4ccc(OCc5cccc(C(F)(F)F)c5)cc4)c3c2)cs1 assigned_class=lo
chemical_structure=NS(=O)(=O)c1ccc(-c2cc3ccncc3cc2OCc2ccccc2)cc1 assigned_class=lo

* * *

Target: Mast/stem cell growth factor receptor Kit (Homo sapiens) (UniProt P10721);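 further: values are mean inhibition of KIT, from the GSK PKIS dataset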
Sequence (P10721 whole entry): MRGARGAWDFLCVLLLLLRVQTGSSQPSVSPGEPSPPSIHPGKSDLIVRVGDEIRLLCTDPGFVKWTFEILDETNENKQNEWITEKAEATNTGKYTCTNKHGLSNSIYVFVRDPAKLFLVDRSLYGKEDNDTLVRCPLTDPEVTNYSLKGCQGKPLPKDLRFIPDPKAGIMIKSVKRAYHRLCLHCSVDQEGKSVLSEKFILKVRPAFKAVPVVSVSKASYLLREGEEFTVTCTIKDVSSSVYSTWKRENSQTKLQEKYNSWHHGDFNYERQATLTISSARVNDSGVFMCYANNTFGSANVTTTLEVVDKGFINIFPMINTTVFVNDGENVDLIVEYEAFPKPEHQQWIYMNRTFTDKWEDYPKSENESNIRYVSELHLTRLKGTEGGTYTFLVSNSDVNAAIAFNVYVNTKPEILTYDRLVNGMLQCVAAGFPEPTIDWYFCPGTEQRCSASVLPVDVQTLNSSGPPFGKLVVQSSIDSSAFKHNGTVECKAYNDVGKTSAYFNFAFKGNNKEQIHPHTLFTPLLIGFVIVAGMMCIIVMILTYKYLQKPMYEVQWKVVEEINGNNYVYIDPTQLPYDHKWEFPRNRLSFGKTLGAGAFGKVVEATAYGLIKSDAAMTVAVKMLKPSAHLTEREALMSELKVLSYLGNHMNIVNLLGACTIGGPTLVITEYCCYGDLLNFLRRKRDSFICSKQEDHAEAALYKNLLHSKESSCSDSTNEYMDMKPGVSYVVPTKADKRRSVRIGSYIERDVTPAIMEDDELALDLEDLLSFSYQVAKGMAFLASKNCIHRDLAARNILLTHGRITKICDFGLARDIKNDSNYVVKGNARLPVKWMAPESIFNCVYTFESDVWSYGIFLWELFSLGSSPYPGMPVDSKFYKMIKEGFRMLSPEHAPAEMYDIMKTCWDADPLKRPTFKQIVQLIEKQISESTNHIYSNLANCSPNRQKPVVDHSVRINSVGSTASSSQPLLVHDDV
Details: at 0.1 µM
inhibition by entry:
Measured quantity: inhibition (%)

chemical_structure=CCS(=O)(=O)c1ccc(OC)c(Nc2nccc(N(C)c3ccc4c(C)n[nH]c4c3)n2)c1 assayed_target="Mast/stem cell growth factor receptor Kit (Homo sapiens) (UniProt P10721)" observed_measurement=44.2
chemical_structure=Cc1ccc(O)cc1Nc1ccnc2ccc(S(C)(=O)=O)cc12 assayed_target="Mast/stem cell growth factor receptor Kit (Homo sapiens) (UniProt P10721)" observed_measurement=13.2
chemical_structure=CN(C)c1cc2c(Nc3ccc4c(cnn4Cc4ccccc4)c3)ncnc2cn1 assayed_target="Mast/stem cell growth factor receptor Kit (Homo sapiens) (UniProt P10721)" observed_measurement=3.49
chemical_structure=Cc1ccc(C(=O)NC2CC2)cc1-c1ccc2[nH]ncc2c1 assayed_target="Mast/stem cell growth factor receptor Kit (Homo sapiens) (UniProt P10721)" observed_measurement=-5.04
chemical_structure=Cc1ccc2c(-c3ccnc(Nc4cccc(C(F)(F)F)c4)n3)c(-c3ccccc3)nn2n1 assayed_target="Mast/stem cell growth factor receptor Kit (Homo sapiens) (UniProt P10721)" observed_measurement=9.72
chemical_structure=O=S(=O)(CCOCc1ccc(-c2ccc3ncnc(Nc4ccc(OCc5cccc(F)c5)c(Cl)c4)c3c2)o1)c1ccccc1 assayed_target="Mast/stem cell growth factor receptor Kit (Homo sapiens) (UniProt P10721)" observed_measurement=1.81
chemical_structure=NS(=O)(=O)c1ccc(NC=C2C(=O)Nc3ccc4ncsc4c32)cc1 assayed_target="Mast/stem cell growth factor receptor Kit (Homo sapiens) (UniProt P10721)" observed_measurement=68.4
chemical_structure=COc1cccc(-n2nc(C)c3c(N/N=C(\C)c4ccncc4)ncnc32)c1 assayed_target="Mast/stem cell growth factor receptor Kit (Homo sapiens) (UniProt P10721)" observed_measurement=1.56
chemical_structure=COC(=O)c1ccc2c(c1)C(=Cc1cc(Br)c(O)c(Br)c1)C(=O)N2 assayed_target="Mast/stem cell growth factor receptor Kit (Homo sapiens) (UniProt P10721)" observed_measurement=3.84
chemical_structure=COc1ccc2ncnc(Nc3ccc(OCc4ccccc4)cc3)c2c1 assayed_target="Mast/stem cell growth factor receptor Kit (Homo sapiens) (UniProt P10721)" observed_measurement=3.24

* * *

inhibition by entry:
Target: PAS domain-containing serine/threonine-protein kinase (Homo sapiens) (UniProt Q96RG2)
Sequence (Q96RG2 whole entry, the tested form may be a part): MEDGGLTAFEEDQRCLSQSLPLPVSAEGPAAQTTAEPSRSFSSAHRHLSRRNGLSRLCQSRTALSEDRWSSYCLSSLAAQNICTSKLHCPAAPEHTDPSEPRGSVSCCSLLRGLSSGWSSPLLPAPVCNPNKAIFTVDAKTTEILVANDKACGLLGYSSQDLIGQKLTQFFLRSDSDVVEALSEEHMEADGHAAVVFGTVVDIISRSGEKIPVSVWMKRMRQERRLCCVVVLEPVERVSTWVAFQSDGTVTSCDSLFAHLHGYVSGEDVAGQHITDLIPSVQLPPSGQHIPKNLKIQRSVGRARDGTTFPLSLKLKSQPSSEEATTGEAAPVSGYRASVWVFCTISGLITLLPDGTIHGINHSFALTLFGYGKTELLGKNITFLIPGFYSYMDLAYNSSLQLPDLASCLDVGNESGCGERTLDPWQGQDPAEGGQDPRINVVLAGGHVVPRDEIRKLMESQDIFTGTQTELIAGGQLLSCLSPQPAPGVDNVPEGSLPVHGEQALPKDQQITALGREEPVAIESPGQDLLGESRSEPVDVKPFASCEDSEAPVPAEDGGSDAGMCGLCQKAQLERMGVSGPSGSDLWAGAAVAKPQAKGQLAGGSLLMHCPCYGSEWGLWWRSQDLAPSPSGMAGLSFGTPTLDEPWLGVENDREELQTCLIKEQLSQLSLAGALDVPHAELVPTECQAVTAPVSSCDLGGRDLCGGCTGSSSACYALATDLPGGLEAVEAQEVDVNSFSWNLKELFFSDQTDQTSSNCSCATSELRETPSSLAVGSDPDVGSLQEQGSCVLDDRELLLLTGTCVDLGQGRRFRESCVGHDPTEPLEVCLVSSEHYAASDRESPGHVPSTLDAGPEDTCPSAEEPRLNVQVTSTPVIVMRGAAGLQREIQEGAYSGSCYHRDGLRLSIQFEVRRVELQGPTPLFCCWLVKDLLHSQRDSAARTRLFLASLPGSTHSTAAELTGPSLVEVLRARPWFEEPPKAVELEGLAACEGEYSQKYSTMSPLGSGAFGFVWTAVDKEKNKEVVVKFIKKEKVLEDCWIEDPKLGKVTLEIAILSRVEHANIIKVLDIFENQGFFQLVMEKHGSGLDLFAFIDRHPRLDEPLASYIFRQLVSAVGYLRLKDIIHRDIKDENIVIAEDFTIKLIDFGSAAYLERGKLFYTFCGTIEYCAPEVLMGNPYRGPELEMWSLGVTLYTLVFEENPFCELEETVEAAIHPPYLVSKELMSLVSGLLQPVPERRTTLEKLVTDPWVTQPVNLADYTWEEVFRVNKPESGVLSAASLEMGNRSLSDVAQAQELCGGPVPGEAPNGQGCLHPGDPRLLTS
Settings: at 0.1 µM
Description: GSK_PKIS: PASK mean inhibition at 0.1 uM [Nanosyn]
Measured quantity: inhibition (%)

compound=NS(=O)(=O)c1ccc(Nc2cc(-c3cccc(O)c3)n[nH]2)cc1 assayed_target="PAS domain-containing serine/threonine-protein kinase (Homo sapiens) (UniProt Q96RG2)" measured_quantity=inhibition observed_measurement=0.14
compound=CCn1c(-c2nonc2N)nc2ccc(F)cc21 assayed_target="PAS domain-containing serine/threonine-protein kinase (Homo sapiens) (UniProt Q96RG2)" measured_quantity=inhibition observed_measurement=1.69
compound=CN(c1ccc(NC(=O)Nc2ccc(OC(F)(F)F)cc2)cc1)c1ccnc(Nc2cccc(S(N)(=O)=O)c2)n1 assayed_target="PAS domain-containing serine/threonine-protein kinase (Homo sapiens) (UniProt Q96RG2)" measured_quantity=inhibition observed_measurement=0.55
compound=COc1ccc2ncnc(Nc3ccc(OCc4ccccc4)cc3)c2c1 assayed_target="PAS domain-containing serine/threonine-protein kinase (Homo sapiens) (UniProt Q96RG2)" measured_quantity=inhibition observed_measurement=-0.03
compound=Cc1nc(-c2ccccc2)n2nc(NCCCN3CCOCC3)ncc12 assayed_target="PAS domain-containing serine/threonine-protein kinase (Homo sapiens) (UniProt Q96RG2)" measured_quantity=inhibition observed_measurement=0.65
compound=CCS(=O)(=O)c1ccc(OC)c(Nc2ncc(-c3cccc(OC)c3)o2)c1 assayed_target="PAS domain-containing serine/threonine-protein kinase (Homo sapiens) (UniProt Q96RG2)" measured_quantity=inhibition observed_measurement=0.21
compound=COC(=O)c1cncc(/C=C/c2c(C)cc(O)cc2C)c1 assayed_target="PAS domain-containing serine/threonine-protein kinase (Homo sapiens) (UniProt Q96RG2)" measured_quantity=inhibition observed_measurement=-0.51
compound=NS(=O)(=O)c1ccc(NC=C2C(=O)Nc3ccc4ncsc4c32)cc1 assayed_target="PAS domain-containing serine/threonine-protein kinase (Homo sapiens) (UniProt Q96RG2)" measured_quantity=inhibition observed_measurement=0.44
compound="CCCN1CCCC(c2ccc(Nc3nc(Nc4cc(F)ccc4C(N)=O)c4cc[nH]c4n3)c(OC)c2)C1 (configuration not stated)" assayed_target="PAS domain-containing serine/threonine-protein kinase (Homo sapiens) (UniProt Q96RG2)" measured_quantity=inhibition observed_measurement=-0.3
compound=Nc1ccc(C#Cc2cncnc2Nc2ccc(OCc3cccc(F)c3)c(Cl)c2)cc1 assayed_target="PAS domain-containing serine/threonine-protein kinase (Homo sapiens) (UniProt Q96RG2)" measured_quantity=inhibition observed_measurement=1.09
compound=Nc1nccc(-c2c(-c3ccc(F)cc3)ncn2CCCN2CCOCC2)n1 assayed_target="PAS domain-containing serine/threonine-protein kinase (Homo sapiens) (UniProt Q96RG2)" measured_quantity=inhibition observed_measurement=-0.18
compound=O=S(=O)(CCOCc1ccc(-c2ccc3ncnc(Nc4ccc(OCc5cccc(F)c5)c(Cl)c4)c3c2)o1)c1ccccc1 assayed_target="PAS domain-containing serine/threonine-protein kinase (Homo sapiens) (UniProt Q96RG2)" measured_quantity=inhibition observed_measurement=-0.23
